target_or_test_system: Tubulin
experiment_summary: Inhibition of tubulin polymerization (unknown origin) measured upto 20 mins by absorbance based assay
Format: protein-complex assay, Homo sapiens
parameter_measured: IC50

Form: molecule = `COc1cc(Nc2ccnc(-c3cccc4c3ccn4C)n2)cc(OC)c1OC` ; IC50 = 22.2 µM
